Assign pIC50 to each entry below.
pIC50 field: float, defined as -log10 of concentration (mol/L).

Supply pIC50 measured with UniProt O60674 for CC(C)NC(=O)c1ccc(Nc2ncnc(-c3ccc(OC4CCOCC4)c(C#N)c3)n2)cc1 [Example 46] .
Sequence (O60674 whole entry): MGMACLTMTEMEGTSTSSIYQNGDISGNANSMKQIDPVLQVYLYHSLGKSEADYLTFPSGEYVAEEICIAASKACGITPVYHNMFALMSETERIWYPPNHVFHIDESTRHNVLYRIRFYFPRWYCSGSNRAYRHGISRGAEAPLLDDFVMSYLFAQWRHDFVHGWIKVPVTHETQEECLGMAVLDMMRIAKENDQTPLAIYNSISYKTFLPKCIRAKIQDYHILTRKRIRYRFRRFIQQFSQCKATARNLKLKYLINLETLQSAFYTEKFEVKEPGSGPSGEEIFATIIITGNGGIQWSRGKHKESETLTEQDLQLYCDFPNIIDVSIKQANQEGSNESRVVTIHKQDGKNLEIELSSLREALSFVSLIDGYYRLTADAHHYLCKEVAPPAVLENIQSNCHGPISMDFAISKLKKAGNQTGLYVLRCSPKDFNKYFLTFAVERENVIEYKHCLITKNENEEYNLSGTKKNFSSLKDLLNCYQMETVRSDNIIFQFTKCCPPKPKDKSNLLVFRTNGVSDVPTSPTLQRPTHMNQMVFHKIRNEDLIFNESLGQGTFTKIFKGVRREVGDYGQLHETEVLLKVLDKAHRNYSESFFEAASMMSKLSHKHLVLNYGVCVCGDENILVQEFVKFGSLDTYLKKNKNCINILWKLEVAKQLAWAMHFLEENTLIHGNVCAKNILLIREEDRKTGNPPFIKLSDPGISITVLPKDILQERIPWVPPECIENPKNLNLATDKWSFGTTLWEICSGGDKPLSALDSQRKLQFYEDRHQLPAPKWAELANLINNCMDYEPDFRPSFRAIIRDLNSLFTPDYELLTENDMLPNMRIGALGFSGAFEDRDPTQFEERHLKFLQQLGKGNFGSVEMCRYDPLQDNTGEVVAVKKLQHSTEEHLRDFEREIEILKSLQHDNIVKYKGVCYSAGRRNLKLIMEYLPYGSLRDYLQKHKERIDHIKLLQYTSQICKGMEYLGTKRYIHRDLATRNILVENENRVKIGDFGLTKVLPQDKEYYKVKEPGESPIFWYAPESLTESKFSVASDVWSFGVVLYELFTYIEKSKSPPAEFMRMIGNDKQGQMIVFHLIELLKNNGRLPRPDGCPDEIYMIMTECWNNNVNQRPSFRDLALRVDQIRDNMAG
6.17

Provide pIC50, system UniProt O60674, entry Cc1cc(Nc2ncnc(-c3ccc(O[C@H]4CCN(C(=O)[C@@H](O)CO)C[C@H]4F)c(C#N)c3)n2)cnc1N1CCN(C2COC2)CC1 [Example 513]
6.29

Write down the reported pIC50 (system: UniProt O60674) of C[C@H](O)C(=O)N1CC[C@H](Oc2ccc(-c3ncnc(Nc4cccc(C(C)(C)O)c4)n3)cc2C#N)[C@H](F)C1 [Example 486]
6.12

Write down measured pIC50 (UniProt O60674) for this compound. Cc1cc(Nc2ncnc(-c3ccc(O[C@H]4CCN(C(=O)c5cn(C)nn5)C[C@H]4F)c(C#N)c3)n2)ccc1C1CCN(C)CC1 [Example 485]
6.24

Given N#Cc1cc(-c2ncnc(Nc3ccc(N4CCN(C5COC5)CC4)cc3)n2)ccc1O[C@H]1CCN(C(=O)c2[nH]ncc2Cl)C[C@H]1F [Example 322] , report its pIC50 on UniProt O60674.
6.72

Give pIC50; test system UniProt O60674; compound N#Cc1cc(-c2ncnc(Nc3ccc(N4CCN(C5COC5)CC4)cc3)n2)ccc1O[C@H]1CCN(C(=O)c2nc(N)n[nH]2)C[C@H]1F [Example 334]
7.10

Give pIC50 for this entry on UniProt O60674: C[C@@H]1CN(C2COC2)CCN1c1ccc(Nc2ncnc(-c3ccc(O[C@H]4CCN(C(=O)CO)C[C@H]4F)c(C#N)c3)n2)cc1 [Example 242]
6.60

* * *

Answer each item with its documented IC50.
target: IKKε (Homo sapiens (Human)); assay: IKKε TR-FRET enzymatic assay; assay type: biochemical; conditions: TR-FRET, 2×Km ATP; geometric mean of minimum four determinations; read-out: IKKe IC50
Sequence (Q14164 whole entry): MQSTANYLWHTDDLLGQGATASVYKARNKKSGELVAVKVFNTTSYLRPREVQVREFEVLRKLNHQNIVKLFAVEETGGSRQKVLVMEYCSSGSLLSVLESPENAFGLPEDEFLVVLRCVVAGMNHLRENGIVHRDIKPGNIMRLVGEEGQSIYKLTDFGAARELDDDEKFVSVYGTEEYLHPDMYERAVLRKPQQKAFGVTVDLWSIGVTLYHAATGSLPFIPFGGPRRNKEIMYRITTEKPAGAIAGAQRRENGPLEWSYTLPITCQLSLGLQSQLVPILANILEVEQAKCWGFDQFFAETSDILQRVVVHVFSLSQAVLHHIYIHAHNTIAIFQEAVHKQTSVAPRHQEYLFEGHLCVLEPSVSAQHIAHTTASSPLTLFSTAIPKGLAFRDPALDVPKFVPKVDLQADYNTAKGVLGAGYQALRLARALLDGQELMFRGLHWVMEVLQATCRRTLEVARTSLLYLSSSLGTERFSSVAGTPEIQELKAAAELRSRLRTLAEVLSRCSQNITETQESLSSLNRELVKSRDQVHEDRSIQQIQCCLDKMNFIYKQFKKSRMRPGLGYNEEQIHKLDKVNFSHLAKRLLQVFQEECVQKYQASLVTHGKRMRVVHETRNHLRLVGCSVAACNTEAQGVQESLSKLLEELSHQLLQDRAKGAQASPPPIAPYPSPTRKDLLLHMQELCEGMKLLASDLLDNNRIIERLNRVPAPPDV

Consider the molecule N#Cc1cc(-c2ncnc(Nc3ccc(N4CCN(C5COC5)CC4)cc3)n2)ccc1OCCNC(=O)c1cccnc1 [Example 598] . State its measured IC50.
720 nM

Quote IC50 reported for CN(CCO)C(=O)N1CC[C@H](Oc2ccc(-c3ncnc(Nc4ccc(N5CCN(C6COC6)CC5)cc4)n3)cc2C#N)[C@H](F)C1 [Example 428] please.
64 nM

Indicate its recorded IC50; the molecule in question is Cc1n[nH]c(C(=O)N2CC[C@H](Oc3ccc(-c4ncnc(Nc5ccc(N6CCN(C7COC7)CC6)cc5)n4)cc3C#N)C(F)(F)C2)n1 [Example 452]
1 nM

Provide measured IC50 value, entry: CC1(C)CN(C(=O)c2ccn[nH]2)C[C@@H](F)[C@H]1Oc1ccc(-c2ncnc(Nc3ccc(N4CCN(C5COC5)CC4)cc3)n2)cc1C#N [Example 442]
3 nM

Output IC50 of Cc1n[nH]c(C(=O)N2CC[C@H](Oc3ccc(-c4ncnc(Nc5ccc(N6CCN(C7COC7)CC6)cc5)n4)cc3C#N)[C@H](F)C2)c1C [Example 526]
19 nM

Retrieve IC50 measured for N#CCCC(=O)N1CC[C@H](Oc2ccc(-c3ncnc(Nc4ccc(N5CCN(C6COC6)CC5)cc4)n3)cc2C#N)[C@H](F)C1 [Example 417] and print it.
79 nM

Hello, please tell me recorded IC50 for this one: C[C@@H]1CN(C(=O)CO)CC(F)(F)[C@H]1Oc1ccc(-c2ncnc(Nc3ccc(N4CCN(C5COC5)CC4)cc3)n2)cc1C#N (relative stereo) [Example 432]
3 nM

State, in one line, measured IC50 of N#Cc1cc(-c2ncnc(Nc3cn[nH]c3)n2)ccc1O[C@H]1CCN(C(=O)CO)C[C@H]1F [Example 507]
2 nM

Please give the documented IC50 of C[C@H]1C[C@H](Oc2ccc(-c3ncnc(Nc4ccc(N5CCN(C6COC6)CC5)cc4)n3)cc2C#N)[C@H](F)CN1C(=O)[C@H]1CCC(=O)N1 [Example 411]
≥ 1000 nM

Retrieve IC50 measured for CCn1cc(Nc2ncnc(-c3ccc(O[C@H]4CCN(C(=O)CO)C[C@H]4F)c(C#N)c3)n2)nn1 [Example 502] and print it.
29 nM

Complete the entry with IC50 for Cc1cc(Nc2ncnc(-c3ccc(O[C@@H]4CCC(=O)NC4)c(C#N)c3)n2)ccc1N1CCN(C2COC2)CC1 [Example 532]
2 nM
